Experiment: Solubility of AP1510 in culture medium
Type: physicochemical
Settings: aqueous buffer, kinetic from ethanol stock; serial dilution in (aqueous) culture medium; read-out: highest concentration ensuring complete solubility
Method: In the latter case it is recommended that the highest concentration not exceed 5 uM, to ensure complete solubility in the (aqueous) medium. […]

{"columns": ["Structure Smiles String", "solubility"],
 "data": [
  ["CCC(C)(C)C(=O)C(=O)N1CCCC[C@H]1C(=O)O[C@H](CCc1ccc(OC)c(OC)c1)c1cccc(OCC(=O)NCCNC(=O)COc2cccc([C@@H](CCc3ccc(OC)c(OC)c3)OC(=O)[C@@H]3CCCCN3C(=O)C(=O)C(C)(C)CC)c2)c1", "≤ 5 µM"]
]}

Where do these numbers come from? They come from patent US20030129168A1.
